Tested on: SF-268 CNS
measurement.notes: NCI tumour cell line growth inhibition, 48 h; in the data active = GI50 below about 0.43 µM; inactive = the rest
Pick from yes (1) = active, no (0) = inactive when you respond.

{"test.smiles": "CN1CCN(c2ccc(-c3ccc4ncc(C#N)c(Nc5ccc(F)c(Cl)c5)c4c3)cc2)CC1", "class.assignment": "no (0)"}
{"test.smiles": "COc1cccc(C(=O)Nc2ccc(CN3CCc4nc5cc(OC)c(OC)cc5cc43)cc2)c1", "class.assignment": "no (0)"}
{"test.smiles": "Cc1cc2cccnc2c2ncccc12", "class.assignment": "no (0)"}
{"test.smiles": "CC[C@@]1(OC(=O)CN)C(=O)OCc2c1cc1n(c2=O)Cc2cc3cc4c(cc3nc2-1)OCO4", "class.assignment": "yes (1)"}
{"test.smiles": "Cc1cc(Cc2cc(C)c(O)c(C)c2)cc(C)c1O", "class.assignment": "no (0)"}

Q: Could you please tell me the result logged for `O=C(Cn1c(=O)c(-c2ccccc2)nc2ccccc21)c1ccc(Cl)cc1` in this assay?
Ans: no (0)
